Documented IC50 across a set of compounds
Target: Protein mono-ADP-ribosyltransferase PARP15 (Homo sapiens, UniProt Q460N3)
Sequence (Q460N3 whole entry): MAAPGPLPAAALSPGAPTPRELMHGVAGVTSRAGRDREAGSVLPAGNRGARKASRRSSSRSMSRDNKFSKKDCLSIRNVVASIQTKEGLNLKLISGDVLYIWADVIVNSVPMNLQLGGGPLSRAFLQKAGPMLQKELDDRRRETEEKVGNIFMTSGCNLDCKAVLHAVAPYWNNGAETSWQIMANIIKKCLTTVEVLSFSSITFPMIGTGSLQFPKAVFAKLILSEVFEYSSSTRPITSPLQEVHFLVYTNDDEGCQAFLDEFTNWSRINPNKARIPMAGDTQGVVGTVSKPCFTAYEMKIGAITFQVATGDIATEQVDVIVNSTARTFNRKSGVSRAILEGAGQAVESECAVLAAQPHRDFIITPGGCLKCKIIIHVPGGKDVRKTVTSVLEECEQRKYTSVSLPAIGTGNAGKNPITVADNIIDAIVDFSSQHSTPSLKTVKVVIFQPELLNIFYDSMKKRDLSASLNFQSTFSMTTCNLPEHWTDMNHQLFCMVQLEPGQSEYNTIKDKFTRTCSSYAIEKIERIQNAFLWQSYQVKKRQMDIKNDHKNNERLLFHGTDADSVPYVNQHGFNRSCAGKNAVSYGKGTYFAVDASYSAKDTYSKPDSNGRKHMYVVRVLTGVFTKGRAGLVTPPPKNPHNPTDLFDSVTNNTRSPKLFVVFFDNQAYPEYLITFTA
Assay: Inhibition of human ARTD7 (460 to 656) using 250 nM NAD substrate after 2 hrs incubation

test.smiles	IC50
O=c1[nH]c(N2CCN(Cc3ccncc3)CC2)nc2c1CCCC2	> 10 µM

Query string: Which IC50 reading was recorded for the compound CN1CCN(c2nc3c(c(=O)[nH]2)CCCC3)CC1 ?
Result string: > 10 µM
